Test system: 475296-252-R-J1-PDC spheroid viability
Experiment: Anticancer human tumor 475296-252-R-J1-PDC patient-derived rectal carcinoma cell line growth inhibition [PI3K]
Conditions: second compound 0.316 µM; first compound 0.316 µM; active compounds read low; spheroids with HUVEC and MSC
Readout name: viability, T/C (%)

INSERT INTO assay_data (compound, measure_unit, measured) VALUES
  ('Cn1ncc(Cl)c1-c1cc(C(=O)NC(CN)Cc2cccc(F)c2)sc1Cl (stereo not drawn) + COc1c(OCCCN2CCOCC2)ccc2c3n(c(=NC(=O)c4cnc(N)nc4)nc12)CCN3', '%', 62.1),
  ('CC(Cn1ccc(-c2ccc(C#N)c(Cl)c2)n1)NC(=O)c1cc(C(C)O)[nH]n1 (stereo not drawn) + Cc1nc(NC(=O)N2CCCC2C(N)=O)sc1-c1ccnc(C(C)(C)C(F)(F)F)c1', '%', 103),
  ('C[C@@H](NC(=O)c1ncnc(N)c1Cl)c1ncc(C(=O)Nc2cc(C(F)(F)F)c(Cl)cn2)s1 + CC(Nc1ccc2c(c1)OCCn1cc(N3C(=O)OCC3C(F)F)nc1-2)C(N)=O', '%', 91.7);

----------
System: 475296-252-R-J1-PDC spheroid viability
Assay: Anticancer human tumor 475296-252-R-J1-PDC cell line growth inhibition [PI3K];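 also: spheroids exposed to agents for seven days before readout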
Details: second compound 0.1 µM; first compound 10 µM; active compounds read low; spheroids with HUVEC and MSC
Each entry belongs to exactly one class, chosen by where its viability, T/C falls: bin 0: < 60%; bin 1: ≥ 60% and < 70%; bin 2: ≥ 70%

INSERT INTO assay_data (compound, class_name) VALUES
  ('CCCS(=O)(=O)Nc1ccc(F)c(C(=O)c2c[nH]c3ncc(-c4ccc(Cl)cc4)cc23)c1F + Cc1nc(NC(=O)N2CCCC2C(N)=O)sc1-c1ccnc(C(C)(C)C(F)(F)F)c1', 'bin 2'),
  ('C=CC(=O)N1CCN(c2nc(=O)n(-c3c(C)ccnc3C(C)C)c3nc(-c4c(O)cccc4F)c(F)cc23)C(C)C1 (stereo unspecified) + CC(Nc1ccc2c(c1)OCCn1cc(N3C(=O)OCC3C(F)F)nc1-2)C(N)=O', 'bin 2'),
  ('CC(C)NCC(C(=O)N1CCN(c2ncnc3c2C(C)CC3O)CC1)c1ccc(Cl)cc1 (stereo unspecified) + CC(Nc1ncnc2nc[nH]c12)c1cc2cccc(Cl)c2c(=O)n1-c1ccccc1', 'bin 1'),
  ('Cn1ncc(Cl)c1-c1cc(C(=O)NC(CN)Cc2cccc(F)c2)sc1Cl (stereo unspecified) + Cc1nc(NC(=O)N2CCCC2C(N)=O)sc1-c1ccnc(C(C)(C)C(F)(F)F)c1', 'bin 1'),
  ('C#Cc1c(F)ccc2cc(O)cc(-c3ncc4c(N5CC6CCC(C5)N6)nc(OCC56CCCN5CC(F)C6)nc4c3F)c12 (stereo unspecified) + COc1c(OCCCN2CCOCC2)ccc2c3n(c(=NC(=O)c4cnc(N)nc4)nc12)CCN3', 'bin 0'),
  ('CC1(C)CCC(CN2CCN(c3ccc(C(=O)NS(=O)(=O)c4ccc(NCC5CCOCC5)c([N+](=O)[O-])c4)c(Oc4cnc5[nH]ccc5c4)c3)CC2)=C(c2ccc(Cl)cc2)C1 + Cc1nc(NC(=O)N2CCCC2C(N)=O)sc1-c1ccnc(C(C)(C)C(F)(F)F)c1', 'bin 1'),
  ('Cn1nccc1Nc1nccc(-c2ccn(C(CO)c3ccc(Cl)c(F)c3)c(=O)c2)n1 (stereo unspecified) + CC(Nc1ccc2c(c1)OCCn1cc(N3C(=O)OCC3C(F)F)nc1-2)C(N)=O', 'bin 0'),
  ('C=CC(=O)N1CCN(c2nc(=O)n(-c3c(C)ccnc3C(C)C)c3nc(-c4c(O)cccc4F)c(F)cc23)C(C)C1 (stereo unspecified) + CC(Nc1ncnc2nc[nH]c12)c1cc2cccc(Cl)c2c(=O)n1-c1ccccc1', 'bin 2'),
  ('CNC(=O)c1ccc(N2C(=S)N(c3ccc(C#N)c(C(F)(F)F)c3)C(=O)C2(C)C)cc1F + COc1c(OCCCN2CCOCC2)ccc2c3n(c(=NC(=O)c4cnc(N)nc4)nc12)CCN3', 'bin 2'),
  ('Cn1ncc(Cl)c1-c1cc(C(=O)NC(CN)Cc2cccc(F)c2)sc1Cl (stereo unspecified) + CC(Nc1ncnc2nc[nH]c12)c1cc2cccc(Cl)c2c(=O)n1-c1ccccc1', 'bin 0'),
  ('C=CC(=O)N1CCN(c2nc(=O)n(-c3c(C)ccnc3C(C)C)c3nc(-c4c(O)cccc4F)c(F)cc23)C(C)C1 (stereo unspecified) + COc1c(OCCCN2CCOCC2)ccc2c3n(c(=NC(=O)c4cnc(N)nc4)nc12)CCN3', 'bin 2'),
  ('CC1(C)CCC(CN2CCN(c3ccc(C(=O)NS(=O)(=O)c4ccc(NCC5CCOCC5)c([N+](=O)[O-])c4)c(Oc4cnc5[nH]ccc5c4)c3)CC2)=C(c2ccc(Cl)cc2)C1 + CC(Nc1ccc2c(c1)OCCn1cc(N3C(=O)OCC3C(F)F)nc1-2)C(N)=O', 'bin 2'),
  ('Cn1ncc(Cl)c1-c1cc(C(=O)NC(CN)Cc2cccc(F)c2)sc1Cl (stereo unspecified) + CC(Nc1ccc2c(c1)OCCn1cc(N3C(=O)OCC3C(F)F)nc1-2)C(N)=O', 'bin 0'),
  ('C#Cc1c(F)ccc2cc(O)cc(-c3ncc4c(N5CC6CCC(C5)N6)nc(OCC56CCCN5CC(F)C6)nc4c3F)c12 (stereo unspecified) + CC(Nc1ncnc2nc[nH]c12)c1cc2cccc(Cl)c2c(=O)n1-c1ccccc1', 'bin 0'),
  ('Cn1ncc(Cl)c1-c1cc(C(=O)NC(CN)Cc2cccc(F)c2)sc1Cl (stereo unspecified) + COc1c(OCCCN2CCOCC2)ccc2c3n(c(=NC(=O)c4cnc(N)nc4)nc12)CCN3', 'bin 0'),
  ('CC1(C)CCC(Nc2ncc(C(F)(F)F)c(-c3c[nH]c4c(P(C)(C)=O)c(C#N)ccc34)n2)CN1 (stereo unspecified) + COc1c(OCCCN2CCOCC2)ccc2c3n(c(=NC(=O)c4cnc(N)nc4)nc12)CCN3', 'bin 0'),
  ('Cn1nccc1Nc1nccc(-c2ccn(C(CO)c3ccc(Cl)c(F)c3)c(=O)c2)n1 (stereo unspecified) + COc1c(OCCCN2CCOCC2)ccc2c3n(c(=NC(=O)c4cnc(N)nc4)nc12)CCN3', 'bin 0'),
  ('C[C@@H](NC(=O)c1ncnc(N)c1Cl)c1ncc(C(=O)Nc2cc(C(F)(F)F)c(Cl)cn2)s1 + CC(Nc1ncnc2nc[nH]c12)c1cc2cccc(Cl)c2c(=O)n1-c1ccccc1', 'bin 2'),
  ('CC(C)NCC(C(=O)N1CCN(c2ncnc3c2C(C)CC3O)CC1)c1ccc(Cl)cc1 (stereo unspecified) + COc1c(OCCCN2CCOCC2)ccc2c3n(c(=NC(=O)c4cnc(N)nc4)nc12)CCN3', 'bin 1');

----------
Tested on: 475296-252-R-J1-PDC spheroid viability
Experiment: Anticancer human tumor 475296-252-R-J1-PDC cell line growth inhibition [PI3K];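 also: spheroids exposed to agents for seven days before readout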
Details: second compound 0.01 µM; first compound 3.16 µM; active compounds read low; spheroids with HUVEC and MSC
Listing of entries alongside the reported viability, T/C.
Readout name: viability, T/C (%)

INSERT INTO assay_data (molecule, measurement_target, readout_name, measured) VALUES
  ('CC1(C)CCC(CN2CCN(c3ccc(C(=O)NS(=O)(=O)c4ccc(NCC5CCOCC5)c([N+](=O)[O-])c4)c(Oc4cnc5[nH]ccc5c4)c3)CC2)=C(c2ccc(Cl)cc2)C1 + CC(Nc1ccc2c(c1)OCCn1cc(N3C(=O)OCC3C(F)F)nc1-2)C(N)=O', '475296-252-R-J1-PDC spheroid viability', 'viability, T/C', 93),
  ('CNC(=O)c1ccc(N2C(=S)N(c3ccc(C#N)c(C(F)(F)F)c3)C(=O)C2(C)C)cc1F + CC(Nc1ccc2c(c1)OCCn1cc(N3C(=O)OCC3C(F)F)nc1-2)C(N)=O', '475296-252-R-J1-PDC spheroid viability', 'viability, T/C', 99.3),
  ('Cn1ncc(Cl)c1-c1cc(C(=O)NC(CN)Cc2cccc(F)c2)sc1Cl (stereo not drawn) + COc1c(OCCCN2CCOCC2)ccc2c3n(c(=NC(=O)c4cnc(N)nc4)nc12)CCN3', '475296-252-R-J1-PDC spheroid viability', 'viability, T/C', 59.4);

----------
Tested on: 475296-252-R-J1-PDC spheroid viability
Test: Anticancer human tumor 475296-252-R-J1-PDC cell line growth inhibition [PI3K];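 also: spheroids exposed to agents for seven days before readout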
Conditions: second compound 0.1 µM; first compound 1 µM; active compounds read low; spheroids with HUVEC and MSC
Readout name: viability, T/C (%)

INSERT INTO assay_data (compound, measurement_target, measured) VALUES
  ('Cn1nccc1Nc1nccc(-c2ccn(C(CO)c3ccc(Cl)c(F)c3)c(=O)c2)n1 (stereo unspecified) + CC(Nc1ccc2c(c1)OCCn1cc(N3C(=O)OCC3C(F)F)nc1-2)C(N)=O', '475296-252-R-J1-PDC spheroid viability', 83.7),
  ('C#Cc1c(F)ccc2cc(O)cc(-c3ncc4c(N5CC6CCC(C5)N6)nc(OCC56CCCN5CC(F)C6)nc4c3F)c12 (stereo unspecified) + CC(Nc1ccc2c(c1)OCCn1cc(N3C(=O)OCC3C(F)F)nc1-2)C(N)=O', '475296-252-R-J1-PDC spheroid viability', 72.1),
  ('CC(C)NCC(C(=O)N1CCN(c2ncnc3c2C(C)CC3O)CC1)c1ccc(Cl)cc1 (stereo unspecified) + COc1c(OCCCN2CCOCC2)ccc2c3n(c(=NC(=O)c4cnc(N)nc4)nc12)CCN3', '475296-252-R-J1-PDC spheroid viability', 72.1),
  ('CCN1CCN(Cc2ccc(Nc3ncc(F)c(-c4cc(F)c5nc(C)n(C(C)C)c5c4)n3)nc2)CC1 + CC(Nc1ccc2c(c1)OCCn1cc(N3C(=O)OCC3C(F)F)nc1-2)C(N)=O', '475296-252-R-J1-PDC spheroid viability', 71.8),
  ('C#Cc1c(F)ccc2cc(O)cc(-c3ncc4c(N5CC6CCC(C5)N6)nc(OCC56CCCN5CC(F)C6)nc4c3F)c12 (stereo unspecified) + Cc1nc(NC(=O)N2CCCC2C(N)=O)sc1-c1ccnc(C(C)(C)C(F)(F)F)c1', '475296-252-R-J1-PDC spheroid viability', 64.6),
  ('C[C@@H](NC(=O)c1ncnc(N)c1Cl)c1ncc(C(=O)Nc2cc(C(F)(F)F)c(Cl)cn2)s1 + COc1c(OCCCN2CCOCC2)ccc2c3n(c(=NC(=O)c4cnc(N)nc4)nc12)CCN3', '475296-252-R-J1-PDC spheroid viability', 69.3);
